Endpoint summary: Ki, system: Coagulation factor X (Homo sapiens, UniProt P00742), multiple sources combined.
Respond numerically; units are µM and should not be typed.

Answered cases to consult:
>>> print(df.to_string())
                               smilesrecord                         measurementtarget  assayreadout   value
0  [H]/N=C(/C)N1CCC(Oc2ccc3c4ccccc4n(Cc4ccc5ccc(C(=N)N)cc5c4)c3c2)CC1  Coagulation factor X (Homo sapiens, UniProt P00742)            Ki  0.0016
1  NC(N)=Nc1ccc(NC(=O)c2cc3ccccc3c(O)c2O)cn1  Coagulation factor X (Homo sapiens, UniProt P00742)            Ki      80
2  C[C@H]1CCCC[C@@H]1Oc1cccc(-c2nc3cc(C(=N)N)c(F)cc3[nH]2)c1O  Coagulation factor X (Homo sapiens, UniProt P00742)            Ki      32

We next turn to a different compound, shown below.
## Input Name the recorded Ki of CCOc1cc(O[C@@H]2CCOC2)c(F)c([C@@H](Nc2ccc(C(=N)N)cc2)C(=O)O)c1 , assay system Coagulation factor X (Homo sapiens, UniProt P00742).
## Output 1.9

----------
From various publications: Ki for Coagulation factor X (Homo sapiens, UniProt P00742).
Give the value in nM but do not write nM after it.

                               smilesrecord  value
0  [H]/N=C(\N)c1ccc(NCc2nc3cc(Cn4c(C)nc5ccccc54)ccc3n2C)cc1     40

## Input Consider the compound N=C(N)c1ccc2[nH]c(-c3cccc(-c4ccccc4)c3O)cc2c1 . State its measured Ki.
## Output 160

## Input State its Ki for this compound: Nc1nc2cc(NC(=O)c3cc4ccccc4cc3O)ccc2[nH]1
## Output 200000

## Input In one line, give reported Ki of the entry N=C(N)Nc1ccc(NC(=O)c2cc3ccccc3cc2O)cn1 .
## Output 70000
